System: HepG2 cells
METHOD NOTES: Cytotoxicity against HepG2
Assay type: cell-based
TEST CONDITIONS: Homo sapiens, HepG2, read-out: EC50 HepG2 cells
MEASURED QUANTITY: EC50

Recorded EC50 (compound COC(=O)[C@@H]1[C@H]2C[C@H]3c4[nH]c5ccccc5c4CCN3C[C@@H]2CC[C@@H]1O ): > 100 µM

* * *

Tested on: chloroquine-resistant P. falciparum Dd2 cells
METHOD NOTES: Antiplasmodial dose-response, cell-based SYBR Green I assay, Dd2
Parameters: species or system Plasmodium falciparum
TEST CONDITIONS: Plasmodium falciparum, DD2, read-out: EC50 Dd2 cells
MEASURED QUANTITY: EC50 (µM)
Numbers only here, please. The scale is µM.

The compound listed as COC(=O)[C@@H]1[C@H]2C[C@H]3c4[nH]c5ccccc5c4CCN3C[C@@H]2CC[C@@H]1O [Y, yohimbine] has a reported EC50 of 76.7

Ref: paper PMC7346850
